System: Liver microsomes
Assay: Clearance in Sprague-Dawley rat liver microsomes at pH 7.4 assessed per mg of protein
Type: ADME, Microsome
ATTRIBUTE_MEASURED: CL
Remember to put the unit after the number in your answer.

Examples with their reported CL follow.
CN1CCc2nc(C(=O)N[C@@H]3C[C@@H](C(=O)N(C)C)CC[C@@H]3NC(=O)c3cc4c(F)c(Cl)ccc4[nH]3)sc2C1 : 0.038 nmol/min/mg
CN1CCc2nc(C(=O)N[C@@H]3C[C@@H](C(=O)N(C)C)CC[C@@H]3NC(=O)c3cc4cc(F)ccc4[nH]3)sc2C1 : 0.038 nmol/min/mg
CN1CCc2nc(C(=O)N[C@@H]3C[C@@H](C(=O)N(C)C)CC[C@@H]3NC(=O)c3[nH]c4ccc(Cl)cc4c3Br)sc2C1 : 0.042 nmol/min/mg
CN1CCc2nc(C(=O)N[C@@H]3C[C@@H](C(=O)N(C)C)CC[C@@H]3NC(=O)c3cc4cc(Cl)ccc4[nH]3)sc2C1 : 0.032 nmol/min/mg
CN1CCc2nc(C(=O)N[C@@H]3C[C@@H](C(=O)N(C)C)CC[C@@H]3NC(=O)c3[nH]c4ccc(Cl)cc4c3C=O)sc2C1 : 0.04 nmol/min/mg
CN1CCc2nc(C(=O)N[C@@H]3C[C@@H](C(=O)N(C)C)CC[C@@H]3NC(=O)c3[nH]c4ccc(F)cc4c3Cl)sc2C1 : 0.067 nmol/min/mg

Moving on to another molecule below.
Task: Please list CL recorded for the molecule CN1CCc2nc(C(=O)N[C@@H]3C[C@@H](C(=O)N(C)C)CC[C@@H]3NC(=O)c3cc4cc(Cl)cc(F)c4[nH]3)sc2C1
Output: 0 nmol/min/mg
